src = PubChem BioAssay AID248

The molecules listed here are annotated with their T/C.
Test system: L1210 leukemia ip in BDF1 mice, survival T/C
Experiment: NCI In Vivo Anticancer Drug Screen. Data for tumor model L1210 Leukemia (intraperitoneal) in B6D2F1 (BDF1) mice
Settings: endpoint: mean survival time; dose: 100.0 mg/kg/injection; schedule: Q04DX003 (ip); vehicle: saline with Tween-80; higher = longer survival
Protocol: The antitumor activity of compounds was measured in mice bearing transplantable tumors. Survival or tumor size were measured and the results are expressed as the measurement made in the treated group (T) divided by the measurement made in the vehicle treated control group (C). The tumor model used in this assay is L1210 Leukemia (intraperitoneal) in B6D2F1 (BDF1) mice
Toxic doses and inconclusive results are not listed.

{"columns": ["Molecule", "T/C"],
 "data": [
  ["CS(=O)(=O)CC(=O)c1ccccc1", "95 % of control"],
  ["O=C(O)C12C3C4CC5C3C1C5C42 (stereo not drawn)", "98 % of control"],
  ["Nc1nc(=S)[nH][nH]1", "104 % of control"],
  ["O=C(O)c1ccc(-c2ccc(C(=O)O)cc2I)c(I)c1", "91 % of control"],
  ["CCOC(=O)c1cnc(SC)nc1Nc1cccc(C)c1", "86 % of control"],
  ["CCOc1c(Br)cc(Br)cc1C=O", "103 % of control"],
  ["NNC(=O)c1cc(Cl)ccn1", "96 % of control"],
  ["Nc1nc(-c2ccccc2)c(CCCNc2ccc(C(=O)NC(CCC(=O)O)C(=O)O)cc2)c(=O)[nH]1 (stereo not drawn)", "106 % of control"],
  ["Clc1ccc(C=Nc2ccc(Cl)cc2)cc1", "108 % of control"],
  ["CCOCc1cccc2ccccc12", "106 % of control"],
  ["CCOC(=O)C1=C(C)N(Cc2ccccc2)C(C)=C(C(=O)OCC)C1(C)C", "101 % of control"],
  ["CCCc1nc2ccccc2[nH]1", "96 % of control"],
  ["CCOC(=O)C(C=Nc1ccc(S(N)(=O)=O)cc1)C(=O)OCC", "105 % of control"]
]}
